Values were extracted from patent US10259810B2.

- System under test: ΔF508-CFTR (Homo sapiens, UniProt P13569, DEL508-508)
- Construct: host or cells: CFBE41o-, doxycycline-inducible
- Sequence (P13569 with tags, fused parts or gaps DEL508-508): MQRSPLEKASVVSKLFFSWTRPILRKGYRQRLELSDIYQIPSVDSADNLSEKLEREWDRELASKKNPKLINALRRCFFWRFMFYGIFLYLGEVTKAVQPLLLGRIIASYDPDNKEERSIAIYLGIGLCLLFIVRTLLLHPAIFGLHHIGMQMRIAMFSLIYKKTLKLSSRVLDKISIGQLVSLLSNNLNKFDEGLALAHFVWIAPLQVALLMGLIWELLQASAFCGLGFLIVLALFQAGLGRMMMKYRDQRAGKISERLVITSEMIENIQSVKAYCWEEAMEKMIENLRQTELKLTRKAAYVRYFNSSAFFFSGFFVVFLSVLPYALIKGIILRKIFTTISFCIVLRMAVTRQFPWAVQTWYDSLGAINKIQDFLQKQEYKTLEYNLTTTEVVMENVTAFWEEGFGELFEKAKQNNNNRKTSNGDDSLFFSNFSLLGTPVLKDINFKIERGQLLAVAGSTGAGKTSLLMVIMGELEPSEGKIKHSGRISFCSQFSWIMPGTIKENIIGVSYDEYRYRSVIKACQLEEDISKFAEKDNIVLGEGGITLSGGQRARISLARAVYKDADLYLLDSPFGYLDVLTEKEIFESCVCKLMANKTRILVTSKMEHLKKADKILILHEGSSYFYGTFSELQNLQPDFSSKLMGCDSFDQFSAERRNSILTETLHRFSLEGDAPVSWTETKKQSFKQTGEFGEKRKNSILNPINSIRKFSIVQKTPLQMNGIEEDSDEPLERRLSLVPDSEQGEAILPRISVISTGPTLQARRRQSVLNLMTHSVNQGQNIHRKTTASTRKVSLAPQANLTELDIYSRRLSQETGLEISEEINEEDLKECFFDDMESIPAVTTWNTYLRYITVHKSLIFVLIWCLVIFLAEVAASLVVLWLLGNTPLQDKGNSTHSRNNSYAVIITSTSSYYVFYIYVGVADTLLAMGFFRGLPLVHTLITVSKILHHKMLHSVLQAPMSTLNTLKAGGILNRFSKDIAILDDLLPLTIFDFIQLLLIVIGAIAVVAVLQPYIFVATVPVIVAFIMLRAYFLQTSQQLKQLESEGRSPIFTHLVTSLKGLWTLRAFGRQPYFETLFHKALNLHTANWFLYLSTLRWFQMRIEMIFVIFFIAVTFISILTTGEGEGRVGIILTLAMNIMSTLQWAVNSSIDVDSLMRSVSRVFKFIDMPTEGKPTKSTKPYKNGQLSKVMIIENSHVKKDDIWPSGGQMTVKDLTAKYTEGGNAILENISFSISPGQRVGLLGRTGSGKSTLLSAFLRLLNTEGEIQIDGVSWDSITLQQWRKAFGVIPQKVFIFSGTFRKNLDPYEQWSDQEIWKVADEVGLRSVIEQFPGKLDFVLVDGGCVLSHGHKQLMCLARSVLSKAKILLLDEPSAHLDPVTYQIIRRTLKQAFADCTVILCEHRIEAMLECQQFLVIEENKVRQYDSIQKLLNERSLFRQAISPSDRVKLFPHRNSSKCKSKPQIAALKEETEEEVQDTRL
- Assay protocol: CFTR cell surface levels using HRP-tagged ΔF508-CFTR expressing CFBE cells, in the presence of a co-corrector
- Assay type: cell-based
- Condition label: HRP-tagged ΔF508-CFTR CFBE cells, in the presence of 3 μM co-corrector; read-out: EC50
Readout: EC50 (nM)

* COCC1CCN(c2cc(C(=O)NS(=O)(=O)N3CCCN(C(C)=O)CC3)nc3c2c(C2CCC2)nn3-c2ccccc2)CC1 [Compound 394] | 47.9
* COCC1CCN(c2cc(C(=O)NS(=O)(=O)CC(=O)OC)nc3c2c(C2CCC2)nn3-c2ccccc2)CC1 [Compound 376] | 51.6
* CN(C)S(=O)(=O)NC(=O)c1cc(N2CCC(N3CCCC(C(F)(F)F)C3)CC2)c2c(C3CCC3)nn(-c3ccc(F)cc3)c2n1 (stereo not drawn) [Compound 571] | 77.8
* Cc1cc(-n2nc(C3CCC3)c3c(N4CCC(N5CCOCC5)CC4)cc(C(=O)NS(=O)(=O)N(C)C)nc32)ccc1F [Compound 511] | 78.9
* Cc1nn(-c2cccc(Cl)c2)c2nc(C(=O)NS(C)(=O)=O)cc(-c3ccc(N4CCOCC4)cc3)c12 [Compound 65] | 464
* COCC1CCN(c2cc(C(=O)NS(=O)(=O)CCl)nc3c2c(C2CCC2)nn3-c2ccccc2)CC1 [AC07] | 76.6
* CC(C)Oc1nn(C2CCCCC2)c2nc(C(=O)NS(C)(=O)=O)cc(-c3ccc(C(=O)N4CC5CNCC5C4)cc3)c12 (stereo not drawn) [Compound 631] | 2990
* COc1ccc(-c2cc(C(=O)NS(C)(=O)=O)nc3c2c(C)nn3-c2ccccc2)cc1 [Compound 14] | 1370
* CC(C)c1nn(-c2cccc(N3CCCC3)c2)c2nc(C(=O)NS(C)(=O)=O)cc(-c3ccc(N(C)C4CCOCC4)cc3)c12 [Compound 110] | 336

====

- System under test: ΔF508-CFTR (Homo sapiens, UniProt P13569, DEL508-508)
- Construct: host or cells: CFBE41o-, doxycycline-inducible
- Assay protocol: CFTR cell surface levels using HRP-tagged ΔF508-CFTR expressing CFBE cells, intrinsic corrector capacity
- Assay type: cell-based
- Condition label: HRP-tagged ΔF508-CFTR expressing CFBE41o- cells; compound alone (intrinsic corrector capacity); 20 hours at 33° C.; read-out: EC50
Measured EC50 by item
Readout: EC50 (nM)

- CCS(=O)(=O)NC(=O)c1cc(-c2ccc(N3CC(N(C)C)C3)cc2)c2c(C)nn(-c3ccccc3)c2n1 [Compound 42]: 2120
- COCC1CCCN(c2cc(C(=O)NS(C)(=O)=O)nc3c2c(C2CCC2)nn3-c2ccccc2)C1 (centres unmarked) [Compound 153]: 355
- CCS(=O)(=O)NC(=O)c1cc(N2CCC(CN3CCOCC3)CC2)c2c(C3CCC3)nn(-c3ccc(F)cc3)c2n1 [Compound 494]: 110
- CC1(S(=O)(=O)NC(=O)c2cc(N3CCC(N4CCOCC4)CC3)c3c(C4CCC4)nn(-c4ccc(F)cc4)c3n2)CC1 [Compound 508]: 182
- CC(C)c1nn(-c2cccc(N(C)C)c2)c2nc(C(=O)NS(C)(=O)=O)cc(-c3cnc(N4CCOCC4)nc3)c12 [Compound 59]: 777
- CCN(C)S(=O)(=O)NC(=O)c1cc(N2CCC(N3CCOCC3)CC2)c2c(C3CCC3)nn(-c3ccc(F)cc3)c2n1 [Compound 483]: 84.9
- CC(C)c1nn(C2CCCC2)c2nc(C(=O)NS(C)(=O)=O)cc(-c3ccc(N(C)C)nc3)c12 [Compound 55]: 1220
- Cc1cc(N2CCN(c3cc(C(=O)NS(=O)(=O)N(C)C)nc4c3c(C3CCC3)nn4C3CCCCC3)CC2)ccn1 [Compound 535]: 389
- CS(=O)(=O)NC(=O)c1cc(N2CC3CC3C2)c2c(C3CCC3)nn(-c3ccccc3)c2n1 (centres unmarked) [Compound 186]: 616
- CC(=O)N1CCCN(S(=O)(=O)NC(=O)c2cc(OCC3CCOCC3)c3c(C4CCC4)nn(-c4ccccc4)c3n2)CC1 [Compound 357]: 115
- CC(C)(C)S(=O)(=O)NC(=O)c1cc(N2CCC(CN3CCCC3)CC2)c2c(C3CCC3)nn(-c3ccccc3)c2n1 [Compound 465]: 313
- CCS(=O)(=O)NC(=O)c1cc(-c2ccc(N3CCOCC3)nc2)c2c(C)nn(C3CCCCC3)c2n1 [Compound 48]: 1200
- COCCS(=O)(=O)NC(=O)c1cc(N2CCN(CC(F)(F)F)CC2)c2c(C3CCC3)nn(-c3ccccc3)c2n1 [Compound 330]: 213
- CS(=O)(=O)NC(=O)c1cc(-c2ccc(N3CCC(C#N)CC3)nc2)c2c(C3CCC3)nn(C3CCCCC3)c2n1 [Compound 104]: 497
- CC(C)c1nn(C2CCCCC2)c2nc(C(=O)NS(C)(=O)=O)cc(-c3ccc(N4CCOCC4)nc3)c12 [Compound 44]: 404
- COCCS(=O)(=O)NC(=O)c1cc(N2CCC(COC)CC2)c2c(C(C)C)nn(C3CCCCC3)c2n1 [Compound 251]: 634

====

- System under test: ΔF508-CFTR (Homo sapiens, UniProt P13569, DEL508-508)
- Construct: host or cells: CFBE41o-, doxycycline-inducible
- Assay protocol: CFTR cell surface levels using HRP-tagged ΔF508-CFTR expressing CFBE cells, intrinsic corrector capacity
- Format: cell-based
- Parameters: concentration or dose not given beside the values
- Condition label: HRP-tagged ΔF508-CFTR expressing CFBE41o- cells; compound alone (intrinsic corrector capacity); 20 hours at 33° C.
Catalogue of % Activation values
Readout: % Activation (%)

* O=C(NS(=O)(=O)N1CC(F)(F)C1)c1cc(N2CCC(N3CCOCC3)CC2)c2c(C3CCC3)nn(-c3ccc(F)cc3)c2n1 [Compound 580] | 201.52
* CN(C)S(=O)(=O)NC(=O)c1cc(N2CCC3(CC2)CCN(C2CC2)CC3)c2c(C3CCC3)nn(-c3ccc(F)cc3)c2n1 [Compound 584] | 164.3
* CN(C)S(=O)(=O)NC(=O)c1cc(C2CCN(CC3CC3)CC2)c2c(C3CCC3)nn(-c3ccc(F)cc3)c2n1 [Compound 613] | 30.09
* COc1ccc(-n2nc(C(C)C)c3c(-c4ccc(N(C)C)cc4)cc(C(=O)NS(C)(=O)=O)nc32)cn1 [Compound 17] | 140.75
* O=C(NS(=O)(=O)CCO)c1cc(N2CCC(N3CCOCC3)CC2)c2c(C3CCC3)nn(-c3ccc(F)cc3)c2n1 [Compound 448] | 258.2
* CS(=O)(=O)NC(=O)c1cc(N2CCC(OCC(=O)N3CCCC3)CC2)c2c(C3CCC3)nn(-c3ccccc3)c2n1 [Compound 154] | 275.65
* O=C(NS(=O)(=O)N1CCOCC1)c1cc(N2CCC(CN3CCCC3)CC2)c2c(C3CCC3)nn(-c3ccccc3)c2n1 [Compound 380] | 131.7

====

- System under test: ΔF508-CFTR (Homo sapiens, UniProt P13569, DEL508-508)
- Construct: host or cells: CFBE41o-, doxycycline-inducible
- Assay protocol: CFTR cell surface levels using HRP-tagged ΔF508-CFTR expressing CFBE cells, in the presence of a co-corrector
- Assay type: cell-based
- Condition label: HRP-tagged ΔF508-CFTR CFBE cells, in the presence of 3 μM co-corrector; read-out: EC50
- From the text: Measuring CFTR Cell Surface Levels Using HRP-Tagged ΔF508-CFTR Expressing CFBE Cells The HRP-tagged ΔF508-CFTR cell assay measures the expression of CFTR-ΔF508 at the plasma membrane. […] When HRP-tagged ΔF508-CFTR is present at the plasma membrane, the HRP enzyme activity can be measured. The amount of CFTR-ΔF508 that can be rescued to the plasma membrane is correlated with the amount of functional enzyme that can be measured. […]
Overview of recorded EC50 for various compounds
Readout: EC50 (nM)

- CCS(=O)(=O)NC(=O)c1cc(-c2ccc(N3CCOCC3)cc2)c2c(C)nn(-c3cc(C)cc(C)c3)c2n1 [Compound 115]: 665
- CN1CCCN(C(=O)c2cc(N3CCC(CN4CCCC4)CC3)c3c(C4CCC4)nn(-c4ccccc4)c3n2)S1(=O)=O [Compound 660]: 235
- CC(=O)N1CCC(F)(COc2cc(C(=O)NS(C)(=O)=O)nc3c2c(C(C)C)nn3-c2ccc(F)cc2)CC1 [Compound 308]: 2490
- CC(C)c1nn(-c2ccc(F)cc2F)c2nc(C(=O)NS(C)(=O)=O)cc(-c3cnc(N4CCC(C#N)CC4)nc3)c12 [Compound 139]: 765
- CN(C)S(=O)(=O)NC(=O)c1cc(N2CCC(N3CCC(F)C3)CC2)c2c(C3CCC3)nn(-c3ccc(F)cc3)c2n1 (centres unmarked) [Compound 541]: 115
